Biological target: glucosylceramide synthase (GCS) (Homo sapiens (Human), UniProt Q16739)
Sequence (Q16739 whole entry, looked up): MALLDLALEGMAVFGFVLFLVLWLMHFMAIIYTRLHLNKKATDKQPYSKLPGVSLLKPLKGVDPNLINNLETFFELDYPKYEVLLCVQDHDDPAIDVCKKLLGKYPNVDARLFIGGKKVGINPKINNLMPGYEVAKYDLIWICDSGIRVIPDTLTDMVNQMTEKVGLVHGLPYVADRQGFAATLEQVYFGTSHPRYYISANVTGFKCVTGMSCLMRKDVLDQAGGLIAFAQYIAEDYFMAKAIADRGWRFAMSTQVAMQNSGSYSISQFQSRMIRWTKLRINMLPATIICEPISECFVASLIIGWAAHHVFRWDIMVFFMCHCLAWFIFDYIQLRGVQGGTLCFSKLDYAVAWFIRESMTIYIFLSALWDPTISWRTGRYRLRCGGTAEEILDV
Assay: Evaluation of inhibitory activities against GCS (enzyme reaction with A549 cell lysate, NBD C6-ceramide, HPLC fluorescence)
Details: GCS activity in A549 cell lysate, 37° C. for 90 minutes
Procedure: Ibiglustat, known as a GCS inhibitor, was used as a control. After the cells attached to the culture dish were washed with phosphate buffered saline (PBS), the cells were scraped off with a cell scraper and then centrifuged (4000 rpm, 3 min, 4° C.) to collect the cells in a 50 ml tube. […] The obtained supernatant was used for the quantitative analysis of proteins. The amount of proteins was measured using the BCA protein assay kit, using bovine serum albumin as a standard. […]
Threshold 10 nM: IC50 strictly smaller gives class 1, otherwise class 0.

{"columns": ["MOLECULE", "CLASS_NAME"],
 "data": [
  ["O=C(NC1c2ccc(-c3cccc(C(F)(F)F)c3)cc2CCC12CC2)O[C@@H]1CN2CCC1CC2 (stereo partly shown)", "class 0"],
  ["CC1(C)CCc2cc(-c3cccc(Cl)c3)ccc2C1NC(=O)O[C@@H]1CN2CCC1CC2 (stereo partly shown)", "class 1"],
  ["CCc1cccc(-c2ccc3c(c2)CCC2(CC2)C3NC(=O)O[C@@H]2CN3CCC2CC3)c1 (stereo partly shown)", "class 0"],
  ["COc1cc(-c2ccc3c(c2)CCC2(CC2)C3NC(=O)O[C@@H]2CN3CCC2CC3)ccc1Cl (stereo partly shown)", "class 0"],
  ["CC1(C)CCc2cc(-c3ccnc(F)c3)ccc2C1NC(=O)O[C@@H]1CN2CCC1CC2 (stereo partly shown)", "class 0"],
  ["COc1ccc(OC)c(-c2ccc3c(c2)CCC2(CC2)C3NC(=O)O[C@@H]2CN3CCC2CC3)c1 (stereo partly shown)", "class 0"],
  ["CC1(C)CCc2cc(-c3ccc(F)c(F)c3)ccc2C1NC(=O)O[C@@H]1CN2CCC1CC2 (stereo partly shown)", "class 1"],
  ["COc1cc(OC)cc(-c2ccc3c(c2)CCC2(CC2)C3NC(=O)O[C@@H]2CN3CCC2CC3)c1 (stereo partly shown)", "class 0"],
  ["CC1(C)CCc2cc(-c3ccc(OC(F)(F)F)cc3)ccc2C1NC(=O)O[C@@H]1CN2CCC1CC2 (stereo partly shown)", "class 1"],
  ["O=C(NC1c2cc(-c3ccccc3Cl)ccc2CCC12CC2)O[C@@H]1CN2CCC1CC2 (stereo partly shown)", "class 1"],
  ["COCCOc1cccc(-c2ccc3c(c2)CCC(C)(C)C3NC(=O)O[C@@H]2CN3CCC2CC3)c1 (stereo partly shown)", "class 1"],
  ["COc1ccc(-c2ccc3c(c2)CCC2(CC2)C3NC(=O)O[C@@H]2CN3CCC2CC3)cc1OC (stereo partly shown)", "class 0"],
  ["CC(C)Oc1ccc(-c2cc3c(cc2F)C(NC(=O)O[C@@H]2CN4CCC2CC4)C(C)(C)CC3)cc1 (stereo partly shown)", "class 1"],
  ["O=C(NC1CCCc2ccc(-c3ccc(F)c(F)c3)cc21)O[C@@H]1CN2CCC1CC2 (stereo partly shown)", "class 0"],
  ["COc1cc2c(cc1-c1ccnc(OC(C)(C)C)c1)CCC(C)(C)C2NC(=O)O[C@@H]1CN2CCC1CC2 (stereo partly shown)", "class 1"],
  ["CC(=O)c1sccc1-c1ccc2c(c1)CCC(C)(C)C2NC(=O)O[C@@H]1CN2CCC1CC2 (stereo partly shown)", "class 1"]
]}
